- target-of-assay: HLA-DR molecule encoded by the allele DRB1*0301 (human)
- protocol-summary: competition ELISA vs biotinylated MT 2-16
Please use fulfilled for IC50 under 1000 nM and not fulfilled for everything else, ties included.

Check out these entries, answers already filled in.
Query: Is it true that IC50 reported for EWRFDSRLAFHHVAREL (modifications not checked) [Nef13 peptide (positions 182-198 of the HIV-1 Nef protein, Bru strain), P03406 182-198] is less than 1000 nM?
Reply: fulfilled

Query: Is it true that IC50 reported for LEWRFDSRLAFHHVA (modifications not checked) [Nef13.2 peptide (positions 181-195 of the HIV-1 Nef protein, Bru strain), P03406 181-195] is less than 1000 nM?
Reply: fulfilled

Query: Is it true that IC50 reported for PAADGVGAASRDLEK (modifications not checked) [Nef2 peptide (positions 25-39 of the HIV-1 Nef protein, Bru strain), P03406 25-39] is less than 1000 nM?
Reply: not fulfilled

Query: Is it true that IC50 reported for DPEREVLEWRFDSRLA (modifications not checked) [Nef12 peptide (positions 175-190 of the HIV-1 Nef protein, Bru strain), P03406 175-190] is less than 1000 nM?
Reply: not fulfilled

Query: Is it true that IC50 reported for LAFHHVARELHPEYF (modifications not checked) [Nef13.5 peptide (positions 189-203 of the HIV-1 Nef protein, Bru strain), P03406 189-203] is less than 1000 nM?
Reply: not fulfilled

Query: Is it true that IC50 reported for YKLVPVEPDKVEEAN (modifications not checked) [Nef10.4 peptide (positions 143-157 of the HIV-1 Nef protein, Bru strain), P03406 143-157] is less than 1000 nM?
Reply: not fulfilled

Query: Is it true that IC50 reported for FHHVARELHPEYFKN (modifications not checked) [Nef13.6 peptide (positions 191-205 of the HIV-1 Nef protein, Bru strain), P03406 191-205] is less than 1000 nM?
Reply: fulfilled

Query: Is it true that IC50 reported for VPVEPDKVEEANKGE (modifications not checked) [Nef10.5 peptide (positions 146-160 of the HIV-1 Nef protein, Bru strain), P03406 146-160] is less than 1000 nM?
Reply: not fulfilled

Query: Is it true that IC50 reported for LTFGWCYKLVPVEPDKVEEANKGENTSLLHPV (modifications not checked) [Nef10 peptide (positions 137-168 of the HIV-1 Nef protein, Bru strain), P03406 137-168] is less than 1000 nM?
Reply: fulfilled

Query: Is it true that IC50 reported for WRFDSRLAFHHVARE (modifications not checked) [Nef13.3 peptide (positions 183-197 of the HIV-1 Nef protein, Bru strain), P03406 183-197] is less than 1000 nM?
Reply: fulfilled

Next:
Query: Is it true that IC50 reported for REVLEWRFDSRLAFH (modifications not checked) [Nef13.1 peptide (positions 178-192 of the HIV-1 Nef protein, Bru strain), P03406 178-192] is less than 1000 nM?
Reply: fulfilled
